Biological target: Tubulin
Experiment: Inhibition of tubulin
Assay type: protein-complex assay, Homo sapiens
Collected IC50 values appear next to each entry.
// unit must come after the numeric part

# example entries with known answers
SMILES CODE | IC50
COc1ccc(/C=C(\F)C(=O)c2cc(OC)c(OC)c(OC)c2)cc1O | 0.6 µM
COc1ccc(/C=C(\C)C(=O)c2cc(OC)c(OC)c(OC)c2)cc1O | 1.8 µM

Request: I would be grateful if you could share the reported IC50 for COc1ccc(/C=C(\F)C(=O)c2cc(OC)c(OC)c(OC)c2)cc1 .
Result: 4.6 µM

Request: I would be grateful if you could share the reported IC50 for COc1ccc(/C=C/C(=O)c2cc(OC)c(OC)c(OC)c2)cc1O .
Result: 10 µM
